# credit: PubChem BioAssay

- Test System: E3 ubiquitin-protein ligase XIAP (Homo sapiens)
- Test Description: XIAP binders, primary screen, biophysical, small-molecule microarray, fluorescence 635 nm (AID 1181);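 note: score merges 667 nm emission and signal to noise over triplicate slides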
- Details: small-molecule microarray binding, higher = more signal
Readout Label: composite z-score
Could you keep your reply to the number by itself?

O=C1OCCC=C[C@H]2OC34C=CCN(CCN5CCOCC5)C(=O)[C@H]3N(CCCO)C(=O)[C@@H]4C12 (some centres undefined) : 0.0143
CCCCC(O)C1C=CC2C(=O)NC(=O)C2N1Nc1ccc(Cl)cc1Cl (centres undefined) : -0.272
COc1ccc([Si](C)(C)[C@@H]2[C@@H](CC(=O)N(CCO)Cc3ccccc3)O[C@]3(C(=O)N(Cc4ccc(N5CCC5=O)cc4)c4ccccc43)[C@H]2C)cc1 : -0.0151

Turning now to a further molecule:
Jot down composite z-score (E3 ubiquitin-protein ligase XIAP (Homo sapiens)) of CC(C)c1ccc(NN2C(C(O)C(C)C)C=CC3C(=O)N(c4ccccc4)C(=O)C32)cc1 (centres undefined) . 0.132
